Every entry's value here was drawn from patent US20210380703A1.

# optical density listing for each entry below
molecular target: T1, human ACVR2A (human, UniProt P27037 20-135, limits assumed); test: ELISA; note: test concentration or dose not given here
T1 construct: also called activin receptor, type II A
T1 sequence (P27037 20-135 limits assumed): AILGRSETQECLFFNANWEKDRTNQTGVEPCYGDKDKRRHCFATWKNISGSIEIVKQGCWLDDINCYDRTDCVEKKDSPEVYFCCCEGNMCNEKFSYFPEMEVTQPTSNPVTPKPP
property name: optical density

{"binder": "373_D02 (antibody, V domains shown, VH and VL only) VH: EVQLLESGGGLVQPGGSLRLSCAASGFTFSSYSMNWVRQAPGKGLEWVSNINYNSGYKGYADSVKGRFTISRDNSKNTLYLQMNSLRAEDTAVYYCARSATWHDTHLDYWGQGTLVTVSS VL: DIQMTQSPSSLSASVGDRVTITCRASQSILSYLNWYQQKPGKAPKLLIYAATSLASGVPSRFSGSGSGTDFTLTISSLQPEDFATYYCQQSYDLPLTFGGGTKVEIK", "result": "3.73 OD"}
{"binder": "365_H04 (antibody, V domains shown, VH and VL only) VH: EVQLLESGGGLVQPGGSLRLSCAASGFTFSDYGMNWVRQAPGKGLEWVSGINYNSGYKSYADSVKGRFTISRDNSKNTLYLQMNSLRAEDTAVYYCARSATWHDTHLDYWGQGTLVTVSS VL: DIQMTQSPSSLSASVGDRVTITCRASQSILTYVNWYQQKPGKAPKLVIYAATSRASGVPSRFSGSGSGTDFTLTISSLQPEDFATYYCQQSYESPLTFGGGTKVEIK", "result": "2.47 OD"}
{"binder": "369_G09 (antibody, V domains shown, VH and VL only) VH: EVQLLESGGGLVQPGGSLRLSCAASGFTFDSYSMNWVRQAPGKGLEWVSNINYNGGYTGYADSVKGRFTISRDNSKNTLYLQMNSLRAEDTAVYYCARSATWHDTHLDYWGQGTLVTVSS VL: DIQMTQSPSSLSASVGDRVTITCRASQSIVTYLNWYQQKPGKAPKLLIYAATSRASGVPSRFSGSGSGTDFTLTISSLQPEDFATYYCQQSYDLPLTFGGGTKVEIK", "result": "3.36 OD"}
{"binder": "375_G12 (antibody, V domains shown, VH and VL only) VH: EVQLLESGGGLVQPGGSLRLSCAASGFTFDSYGMHWVRQAPGKGLEWVSSINYNGGYTSYADSVKGRFTISRDNSKNTLYLQMNSLRAEDTAVYYCARSATWHDTHLDYWGQGTLVTVSS VL: DIQMTQSPSSLSASVGDRVTITCRASQSIVSYVNWYQQKPGKAPKLLIYAATSRHSGVPSRFSGSGSGTDFTLTISSLQPEDFATYYCQQSYDTPLTFGGGTKVEIK", "result": "3.36 OD"}
{"binder": "369_E04 (antibody, V domains shown, VH and VL only) VH: EVQLLESGGGLVQPGGSLRLSCAASGFTFSDYSMNWVRQAPGKGLEWVSGINYNSGYKSYADSVKGRFTISRDNSKNTLYLQMNSLRAEDTAVYYCARSATWHDTHLDYWGQGTLVTVSS VL: DIQMTQSPSSLSASVGDRVTITCRASQSILSYVNWYQQKPGKAPKLVIYAATSRASGVPSRFSGSGSGTDFTLTISSLQPEDFATYYCQQSYSLPLTFGGGTKVEIK", "result": "2.88 OD"}
{"binder": "368_H10 (antibody, V domains shown, VH and VL only) VH: EVQLLESGGGLVQPGGSLRLSCAASGFTFSSYSMNWVRQAPGKGLEWVSSINYNSGYKGYADSVKGRFTISRDNSKNTLYLQMNSLRAEDTAVYYCARSATWHDTHLDYWGQGTLVTVSS VL: DIQMTQSPSSLSASVGDRVTITCRASQSIVSYVNWYQQKPGKAPKLVIYAVTSLASGVPSRFSGSGSGTDFTLTISSLQPEDFATYYCQQSYETPLTFGGGTKVEIK", "result": "2.28 OD"}
{"binder": "369_E09 (antibody, V domains shown, VH and VL only) VH: EVQLLESGGGLVQPGGSLRLSCAASGFTFDSYSMNWVRQAPGKGLEWVSNINYNSGYKGYADSVKGRFTISRDNSKNTLYLQMNSLRAEDTAVYYCARSATWHDTHLDYWGQGTLVTVSS VL: DIQMTQSPSSLSASVGDRVTITCRASQSILSYLNWYQQKPGKAPKLVIYAATSRASGVPSRFSGSGSGTDFTLTISSLQPEDFATYYCQQSYDLPLTFGGGTKVEIK", "result": "3.63 OD"}
{"binder": "365_E03 (antibody, V domains shown, VH and VL only) VH: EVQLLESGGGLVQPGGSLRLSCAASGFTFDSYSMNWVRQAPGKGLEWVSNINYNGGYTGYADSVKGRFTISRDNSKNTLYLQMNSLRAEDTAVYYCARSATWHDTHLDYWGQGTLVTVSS VL: DIQMTQSPSSLSASVGDRVTITCRASQSILTYVNWYQQKPGKAPKLLIYAATSLHSGVPSRFSGSGSGTDFTLTISSLQPEDFATYYCQQSDERPLTFGGGTKVEIK", "result": "2.56 OD"}
{"binder": "369_C08 (antibody, V domains shown, VH and VL only) VH: EVQLLESGGGLVQPGGSLRLSCAASGFTFSDYGMNWVRQAPGKGLEWVSNINYNGGYTGYADSVKGRFTISRDNSKNTLYLQMNSLRAEDTAVYYCARSATWHDTHLDYWGQGTLVTVSS VL: DIQMTQSPSSLSASVGDRVTITCRASQSILTYLNWYQQKPGKAPKLVIYAATSLASGVPSRFSGSGSGTDFTLTISSLQPEDFATYYCQQSYENPLTFGGGTKVEIK", "result": "2.32 OD"}
{"binder": "372_H03 (antibody, V domains shown, VH and VL only) VH: EVQLLESGGGLVQPGGSLRLSCAASGFTFDSYGMNWVRQAPGKGLEWVSNINYNGGYKSYADSVKGRFTISRDNSKNTLYLQMNSLRAEDTAVYYCARSATWHDTHLDYWGQGTLVTVSS VL: DIQMTQSPSSLSASVGDRVTITCRASQSIITYVNWYQQKPGKAPKLLIYAATSLASGVPSRFSGSGSGTDFTLTISSLQPEDFATYYCQQSYNLPLTFGGGTKVEIK", "result": "2.32 OD"}
